From: patent US12419874B2

- assayProcedure: In vivo pharmacokinetics in rats, oral
- Set-up: species or system SD rats
- testSettings: rat, plasma; SD rats, PO, 5 mg/kg
assayReadout: Cmax (ng/mL)
Give the quantity in ng/mL, number only.

## Task Name the recorded Cmax for Cc1cc(-n2nc3c(c2-n2ccn(-c4ccc5c(cnn5C)c4F)c2=O)[C@H](C)N(C(=O)c2cc4cc([C@H]5CCOC(C)(C)C5)ccc4n2[C@@]2(c4noc(=O)[nH]4)C[C@@H]2C)CC32CC2)cc(C)c1F [Compound 1] .
## Result 1080

* * *

- assayProcedure: In vivo pharmacokinetics in rats, oral
- Parameters: species or system SD rats
- testSettings: rat, plasma; SD rats, PO, 1 mg/kg
Please provide measured AUC(0-t) for the entries that follow.
Give the quantity in ng·h/mL, number only.

## Task Name the recorded AUC(0-t) for Cc1cc(-n2nc3c(c2-n2ccn(-c4ccc5c(cnn5C)c4F)c2=O)[C@H](C)N(C(=O)c2cc4cc([C@H]5CCOC(C)(C)C5)ccc4n2[C@@]2(c4noc(=O)[nH]4)C[C@@H]2C)CC32CC(F)(F)C2)cc(C)c1F [Compound 180] .
## Result 1120

## Task What would you report for Cc1cc(-n2nc3c(c2-n2ccn(-c4ccc5c(cnn5C)c4F)c2=O)[C@H](C)N(C(=O)c2cc4cc([C@H]5CCOC(C)(C)C5)ccc4n2[C@@]2(c4noc(=O)[nH]4)C[C@@H]2C)CC32CC2)cc(C)c1F [Compound 1] ?
## Result 2300

## Task What would you report for Cc1cc(-n2nc3c(c2-n2ccn(-c4ccc5c(cnn5C)c4F)c2=O)[C@H](C)N(C(=O)c2cc4cc([C@H]5CCOC(C)(C)C5)ccc4n2[C@@]2(c4noc(=O)[nH]4)C[C@@H]2C)CC32CC2F)cc(C)c1F (some centres unmarked) [Compound 228] ?
## Result 2400

## Task What would you report for Cc1cc(-n2nc3c(c2-n2ccn(-c4ccc5c(cnn5C)c4F)c2=O)[C@H](C)N(C(=O)c2cc4cc([C@H]5CCOC(C)(C)C5)ccc4n2[C@@]2(c4noc(=O)[nH]4)C[C@@H]2C)CC32C[C@H]2C)cc(C)c1F (some centres unmarked) [Compound 226] ?
## Result 1480

## Task What would you report for C=C1CC2(C1)CN(C(=O)c1cc3cc([C@H]4CCOC(C)(C)C4)ccc3n1[C@@]1(c3noc(=O)[nH]3)C[C@@H]1C)[C@@H](C)c1c2nn(-c2cc(C)c(F)c(C)c2)c1-n1ccn(-c2ccc3c(cnn3C)c2F)c1=O [Compound 218] ?
## Result 990

* * *

- assayedTarget: GLP-1R (Homo sapiens)
- assayProcedure: GLP-1R agonistic activity by One-Lite luciferase assay in HEK293-GLP-1R-luc cells (Example 59)
- Assay type: cell-based
- testSettings: 6 h incubation, read-out: cAMP EC50
Please provide measured EC50 for the entries that follow.

## Task Name the recorded EC50 for Cc1cc(-n2nc3c(c2-n2ccn(-c4ccc5c(cnn5C)c4F)c2=O)[C@H](C)N(C(=O)c2cc4cc([C@H]5CCOC(C)(C)C5)ccc4n2[C@@]2(c4noc(=O)[nH]4)C[C@@H]2C)CC32CSC2)cc(C)c1F .
## Result ≤ 20 nM

## Task What would you report for Cc1cc(-n2nc3c(c2-n2ccn(-c4ccc5c(cnn5C5CC5)c4F)c2=O)[C@H](C)N(C(=O)c2cc4cc([C@H]5CCOC(C)(C)C5)ccc4n2[C@@]2(c4noc(=O)[nH]4)C[C@@H]2C)CC32CC2)cc(C)c1F ?
## Result ≤ 20 nM

## Task What would you report for Cc1cc(-n2nc3c(c2-n2ccn(-c4ccc5c(cnn5C)c4F)c2=O)[C@H](C)N(C(=O)c2cc4cc([C@H]5CCOC(C)(C)C5)ccc4n2[C@@]2(c4noc(=O)[nH]4)C[C@@H]2C)CC32CCSCC2)cc(C)c1F ?
## Result ≤ 20 nM

## Task What would you report for Cc1cc(-n2nc3c(c2-n2ccn(-c4ccc5c(cnn5C)c4F)c2=O)[C@H](C)N(C(=O)c2cc4cc([C@H]5CCOC(C)(C)C5)ccc4n2[C@@]2(c4noc(=O)[nH]4)C[C@@H]2C)CC32CCNCC2)cc(C)c1F ?
## Result ≤ 20 nM

* * *

- assayedTarget: GLP-1R (Homo sapiens, UniProt P43220)
- Sequence (P43220 24-463): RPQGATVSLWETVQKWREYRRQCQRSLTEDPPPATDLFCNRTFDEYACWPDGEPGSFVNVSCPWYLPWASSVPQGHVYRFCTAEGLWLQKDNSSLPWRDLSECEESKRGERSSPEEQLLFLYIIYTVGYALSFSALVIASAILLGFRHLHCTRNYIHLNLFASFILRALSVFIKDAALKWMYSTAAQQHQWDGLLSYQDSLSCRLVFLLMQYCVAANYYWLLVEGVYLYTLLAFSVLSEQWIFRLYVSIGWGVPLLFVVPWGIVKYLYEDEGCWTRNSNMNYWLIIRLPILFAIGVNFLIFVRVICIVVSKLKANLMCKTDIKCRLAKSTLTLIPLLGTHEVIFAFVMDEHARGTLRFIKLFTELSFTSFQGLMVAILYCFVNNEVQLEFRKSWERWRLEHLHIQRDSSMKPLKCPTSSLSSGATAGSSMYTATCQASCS
- assayProcedure: GLP-1R agonistic activity by One-Lite luciferase assay in HEK293-GLP-1R-luc cells (Example 59)
- Assay type: cell-based
- testSettings: 6 h incubation, read-out: cAMP EC50
Please provide measured EC50 for the entries that follow.

## Task Name the recorded EC50 for CNC1CC2(C1)CN(C(=O)c1cc3cc([C@H]4CCOC(C)(C)C4)ccc3n1[C@@]1(c3noc(=O)[nH]3)C[C@@H]1C)[C@@H](C)c1c2nn(-c2cc(C)c(F)c(C)c2)c1-n1ccn(-c2ccc3c(cnn3C)c2F)c1=O (some centres unmarked) .
## Result ≤ 20 nM

## Task What would you report for COC1CCC2(CC1)CN(C(=O)c1cc3cc([C@H]4CCOC(C)(C)C4)ccc3n1[C@@]1(c3noc(=O)[nH]3)C[C@@H]1C)[C@@H](C)c1c2nn(-c2cc(C)c(F)c(C)c2)c1-n1ccn(-c2ccc3c(cnn3C)c2F)c1=O (some centres unmarked) ?
## Result ≤ 20 nM

* * *

- assayProcedure: In vivo pharmacokinetics in Macaca fascicularis, intravenous
- testSettings: cynomolgus monkey, plasma, male Macaca fascicularis, 0.12 mg/kg
assayReadout: clearance (mL/min/kg)
Give the quantity in mL/min/kg, number only.

## Task Name the recorded clearance for Cc1cc(-n2nc3c(c2-n2ccn(-c4ccc5c(cnn5C)c4F)c2=O)[C@H](C)N(C(=O)c2cc4cc([C@H]5CCOC(C)(C)C5)ccc4n2[C@@]2(c4noc(=O)[nH]4)C[C@@H]2C)CC32CC2)cc(C)c1F .
## Result 2.63

* * *

- assayedTarget: GLP-1R (Homo sapiens, UniProt P43220)
- assayProcedure: GLP-1R agonistic activity by One-Lite luciferase assay in HEK293-GLP-1R-luc cells (Example 59)
- Type: cell-based
- testSettings: 6 h incubation, read-out: cAMP EC50
assayReadout: EC50

## Task Request body: readout EC50, system GLP-1R (Homo sapiens, UniProt P43220), query Cc1cc(-n2nc3c(c2-n2ccn(-c4ccc5c(cnn5C)c4F)c2=O)[C@H](C)N(C(=O)c2cc4cc([C@H]5CCOC(C)(C)C5)ccc4n2[C@@]2(c4noc(=O)[nH]4)C[C@@H]2C)CC32CC(O)C2)cc(C)c1F (stereo partly shown) [Compound 181] . Return the value.
## Result ≤ 20 nM

## Task What would you report for COCC(=O)N1CCC2(CC1)CN(C(=O)c1cc3cc([C@H]4CCOC(C)(C)C4)ccc3n1[C@@]1(c3noc(=O)[nH]3)C[C@@H]1C)[C@@H](C)c1c2nn(-c2cc(C)c(F)c(C)c2)c1-n1ccn(-c2ccc3c(cnn3C)c2F)c1=O [Compound 158] ?
## Result ≤ 20 nM

## Task What would you report for C[C@H]1c2c(nn(-c3ccc(F)c(C4CC4)c3)c2-n2ccn(-c3ccc4c(cnn4C)c3F)c2=O)C2(CC2)CN1C(=O)c1cc2cc(C3CCOC(C)(C)C3)ccn2c1C1(c2noc(=O)[nH]2)CC1 (single isomer, unassigned) [Compound 186-A] ?
## Result > 300 nM

## Task What would you report for Cc1cc(-n2nc3c(c2-n2ccn(-c4ccc5c(cnn5C)c4F)c2=O)[C@H](C)N(C(=O)c2cc4cc([C@H]5CCOC(C)(C)C5)ccc4n2[C@@]2(c4noc(=O)[nH]4)C[C@@H]2C)CC32CC2(F)F)cc(C)c1F (stereo partly shown) [Compound 225] ?
## Result ≤ 20 nM

* * *

Please provide measured pEC50 for the entries that follow.
- assayedTarget: GLP-1R (Homo sapiens)
- assayProcedure: GLP-1R agonistic activity by One-Lite luciferase assay in HEK293-GLP-1R-luc cells (Example 59)
- Format: cell-based
- testSettings: 6 h incubation, read-out: cAMP EC50
pEC50: −log10 of the molar value.

## Task Name the recorded pEC50 for Cc1cc(-n2nc3c(c2-n2ccn(-c4ccc5c(cnn5C)c4F)c2=O)[C@H](C)N(C(=O)c2cc4cc([C@H]5CCOC(C)(C)C5)ccc4n2[C@@]2(c4noc(=O)[nH]4)C[C@@H]2C)CC32CCC(F)CC2)cc(C)c1F (some centres unmarked) .
## Result 7.00 to 7.70

## Task What would you report for Cc1cc(-n2nc3c(c2-n2ccn(-c4ccc5c(cnn5C)c4F)c2=O)[C@H](C)N(C(=O)c2cc4cc([C@H]5CCOC(C)(C)C5)ccc4n2[C@@]2(c4noc(=O)[nH]4)C[C@@H]2C)CC32C[C@H]2C)cc(C)c1F (some centres unmarked) ?
## Result ≥ 7.70

* * *

- assayedTarget: GLP-1R (Homo sapiens, UniProt P43220)
- assayProcedure: GLP-1R agonistic activity by One-Lite luciferase assay in HEK293-GLP-1R-luc cells (Example 59)
- Assay type: cell-based
- testSettings: 6 h incubation, read-out: cAMP EC50
- Method: The agonistic activities of the compounds of the present disclosure on GLP-1R were evaluated by detecting the generation of cAMP. • (1) Cell line: HEK293-GLP-1R-luc Stable Cell Line (Cobioer, CBP71117); • (2) Culture medium: DMEM+10% FBS (Gibco); • (3) Kit: One-Lite™ kit Luciferase Assay System (Vazyme). 2. […]
pEC50: −log10 of the molar value.
assayReadout: pEC50

## Task Request body: readout pEC50, system GLP-1R (Homo sapiens, UniProt P43220), query Cc1cc(-n2nc3c(c2-n2ccn(-c4ccc5c(cnn5C)c4F)c2=O)[C@H](C)N(C(=O)c2cc4cc([C@H]5CCOC(C)(C)C5)ccc4n2[C@@]2(c4noc(=O)[nH]4)C[C@@H]2C)CC32COC2)cc(C)c1F . Return the value.
## Result ≥ 7.70

## Task What would you report for Cc1cc(-n2nc3c(c2-n2ccn(-c4ccc5c(cnn5C)c4F)c2=O)[C@H](C)N(C(=O)c2cc4cc([C@H]5CCOC(C)(C)C5)ccc4n2[C@@]2(c4noc(=O)[nH]4)C[C@@H]2C)CC32CC(OC(F)F)C2)cc(C)c1F (some centres unmarked) ?
## Result ≥ 7.70
